The measured values listed here are drawn from patent US20070178531A1.

- experimental-system: T1, Human Id2: Histidine (human, UniProt Q02363 1-134, limits assumed)
- T1 construct: Fusion protein made in E. coli from vector pGW07; also called h-Id2: His; not shown: His tag
- T1 sequence (looked up): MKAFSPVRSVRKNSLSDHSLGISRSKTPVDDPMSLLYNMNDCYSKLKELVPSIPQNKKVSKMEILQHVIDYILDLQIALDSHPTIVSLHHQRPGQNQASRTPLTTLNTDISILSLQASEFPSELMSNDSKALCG
- protocol-description: ELISA, Ab 0.100 µg/ml
recorded-endpoint: A450 (A450)
Provide the reading as a plain figure in A450.

**Query** Recall and state the measured A450 for rabbit monoclonal anti-mouse/human Id3, clone #BCH-4/#6-1 (antibody, V domains shown, Rabbit IgG from a rabbit hybridoma; also called m/h Id3 MoAb 6-1) VH: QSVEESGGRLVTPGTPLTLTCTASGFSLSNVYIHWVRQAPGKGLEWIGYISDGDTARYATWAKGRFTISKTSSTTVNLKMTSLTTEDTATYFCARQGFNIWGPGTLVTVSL VL: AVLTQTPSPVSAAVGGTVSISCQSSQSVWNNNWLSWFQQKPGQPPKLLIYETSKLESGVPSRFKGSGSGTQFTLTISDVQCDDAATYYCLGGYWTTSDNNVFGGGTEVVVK .
**Result** 0.049
